Just for reference, patent US11179383B2 is where these values come from.

# Lookup of reported pEC50 keyed by entry
Target: α4β7 integrin (Homo sapiens, UniProt P13612+P26010)
Construct: monitoring the capture of α4β7 integrin expressing cells on a recombinant MadCAM-1 extracellular domain-coated plate; endogenous in cells; host or cells: RPMI8866 cells
Sequence (P13612 34-1032): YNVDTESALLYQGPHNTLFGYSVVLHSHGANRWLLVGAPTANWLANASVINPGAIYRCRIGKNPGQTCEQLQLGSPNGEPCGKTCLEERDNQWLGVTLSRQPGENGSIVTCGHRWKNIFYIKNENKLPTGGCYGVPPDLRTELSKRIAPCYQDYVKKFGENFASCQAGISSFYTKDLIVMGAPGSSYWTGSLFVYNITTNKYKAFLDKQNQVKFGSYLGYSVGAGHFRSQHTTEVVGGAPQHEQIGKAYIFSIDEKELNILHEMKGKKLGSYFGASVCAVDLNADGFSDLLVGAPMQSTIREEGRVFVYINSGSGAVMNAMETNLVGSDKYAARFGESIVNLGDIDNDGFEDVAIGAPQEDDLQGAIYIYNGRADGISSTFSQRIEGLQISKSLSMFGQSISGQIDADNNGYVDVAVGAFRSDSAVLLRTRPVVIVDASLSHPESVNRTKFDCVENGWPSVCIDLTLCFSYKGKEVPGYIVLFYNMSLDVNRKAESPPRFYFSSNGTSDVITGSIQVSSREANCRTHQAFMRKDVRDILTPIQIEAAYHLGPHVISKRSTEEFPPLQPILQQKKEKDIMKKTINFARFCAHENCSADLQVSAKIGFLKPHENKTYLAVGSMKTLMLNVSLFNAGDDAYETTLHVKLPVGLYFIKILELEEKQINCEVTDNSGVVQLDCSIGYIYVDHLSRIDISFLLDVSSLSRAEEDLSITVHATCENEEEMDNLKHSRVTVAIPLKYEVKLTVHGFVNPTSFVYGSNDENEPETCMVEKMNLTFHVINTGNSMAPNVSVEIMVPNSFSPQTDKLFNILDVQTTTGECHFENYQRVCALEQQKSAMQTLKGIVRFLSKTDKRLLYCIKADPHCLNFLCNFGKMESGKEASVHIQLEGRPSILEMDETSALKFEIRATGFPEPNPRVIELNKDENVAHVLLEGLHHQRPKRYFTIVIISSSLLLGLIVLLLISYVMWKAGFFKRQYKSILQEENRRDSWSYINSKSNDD
Sequence (P26010 20-798): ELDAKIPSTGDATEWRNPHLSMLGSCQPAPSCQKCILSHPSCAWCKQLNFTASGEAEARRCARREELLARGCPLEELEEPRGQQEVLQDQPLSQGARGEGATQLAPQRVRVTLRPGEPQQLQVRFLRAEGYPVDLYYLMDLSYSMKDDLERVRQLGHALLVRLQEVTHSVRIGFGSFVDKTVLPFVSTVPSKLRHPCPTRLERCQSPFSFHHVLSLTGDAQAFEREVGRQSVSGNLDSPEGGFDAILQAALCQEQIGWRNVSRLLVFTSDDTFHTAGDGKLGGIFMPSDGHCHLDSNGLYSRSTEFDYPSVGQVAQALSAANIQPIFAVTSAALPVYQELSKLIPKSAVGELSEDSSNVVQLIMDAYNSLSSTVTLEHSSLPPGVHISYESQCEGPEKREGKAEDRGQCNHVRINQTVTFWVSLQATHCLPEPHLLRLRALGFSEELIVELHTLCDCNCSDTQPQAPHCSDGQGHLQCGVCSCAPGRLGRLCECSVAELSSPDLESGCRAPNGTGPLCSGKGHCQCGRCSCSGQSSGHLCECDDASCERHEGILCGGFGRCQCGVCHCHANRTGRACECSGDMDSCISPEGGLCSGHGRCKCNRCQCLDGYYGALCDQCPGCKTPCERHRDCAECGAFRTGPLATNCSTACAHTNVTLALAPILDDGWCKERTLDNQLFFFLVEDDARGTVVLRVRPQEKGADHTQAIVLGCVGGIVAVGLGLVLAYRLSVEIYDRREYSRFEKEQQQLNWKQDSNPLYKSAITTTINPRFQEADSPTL
Experiment: α4β7 Integrin Cell Capture Assay
Format: cell-based
Settings: capture of α4β7 integrin expressing RPMI8866 cells on recombinant MadCAM-1 extracellular domain-coated plate; DMEM+0.5% FBS+0.5 mM MnCl2; read-out: EC50 α4β7
Interpret pEC50 as the negative base-10 log of the concentration measured in mol/L.

Compound	pEC50
Cc1c(-c2ccc(C[C@H](NC(=O)c3c(Cl)cccc3Cl)C(=O)O)c3ccccc23)c(=O)n(C)c2ccccc12 (single isomer, unassigned) [Example 117]	7.09
Cc1cc(C(F)(F)F)c(-c2ccc(C[C@H](NC(=O)c3c(Cl)cccc3Cl)C(=O)O)c3ncccc23)nn1	6.84
Cc1c(-c2ccc(C[C@H](NC(=O)c3c(Cl)cccc3Cl)C(=O)O)c3ncccc23)c(=O)n(C)c2ccc(F)cc12 (single isomer, unassigned) [Example 12]	7.71
Cn1cc(Cl)cc(-c2ccc(C[C@H](NC(=O)c3c(Cl)cccc3Cl)C(=O)O)c3ncccc23)c1=O	7.78
COc1cc(F)cc(Cl)c1-c1ccc(C[C@H](NC(=O)c2c(Cl)cccc2Cl)C(=O)O)c2ncccc12 (single isomer, unassigned) [Example 53]	6.83
COc1cc(F)cc(C(F)(F)F)c1-c1ccc(C[C@H](NC(=O)c2c(Cl)cccc2Cl)C(=O)O)c2ncccc12 (single isomer, unassigned) [Example 50]	6.82
O=C(N[C@@H](Cc1ccc(-c2ccc(F)cc2Cl)c2c(-c3ccc(F)cc3Cl)ccnc12)C(=O)O)c1c(F)cccc1F	6.16
COc1cc(F)c(F)cc1-c1ccc(C[C@H](NC(=O)c2c(Cl)cccc2Cl)C(=O)O)c2ncccc12	7.49
O=C(N[C@@H](Cc1ccc(-c2c(Cl)cc(F)cc2Cl)c2nccnc12)C(=O)O)c1c(Cl)cccc1Cl	6.79
CCOCc1cc(OC)c(-c2ccc(C[C@H](NC(=O)c3c(F)cccc3F)C(=O)O)c3nc(C)oc23)c(OC)c1	7.24

Query string: Under α4β7 integrin (Homo sapiens, UniProt P13612+P26010): pEC50 value of `COc1cccc(OC)c1-c1ccc(C[C@H](NC(=O)c2c(F)cc(NS(=O)(=O)c3ccc(-c4ccnc(F)c4)cc3)cc2F)C(=O)O)c2ncccc12` ?
Result string: 8.77

Query string: Under α4β7 integrin (Homo sapiens, UniProt P13612+P26010): pEC50 value of Cc1cc(C(F)(F)F)c(-c2ccc(C[C@H](NC(=O)c3c(F)cc(N4CCOC[C@@H]4C(F)(F)F)cc3F)C(=O)O)c3ccccc23)c(=O)n1C (single isomer, unassigned) [Example 128] ?
Result string: 8.77
